Hey, just so you know, these numbers are from patent US6291677A.

Kd values, listed per item
Biological target: UniProt P10276
Sequence (P10276 whole entry): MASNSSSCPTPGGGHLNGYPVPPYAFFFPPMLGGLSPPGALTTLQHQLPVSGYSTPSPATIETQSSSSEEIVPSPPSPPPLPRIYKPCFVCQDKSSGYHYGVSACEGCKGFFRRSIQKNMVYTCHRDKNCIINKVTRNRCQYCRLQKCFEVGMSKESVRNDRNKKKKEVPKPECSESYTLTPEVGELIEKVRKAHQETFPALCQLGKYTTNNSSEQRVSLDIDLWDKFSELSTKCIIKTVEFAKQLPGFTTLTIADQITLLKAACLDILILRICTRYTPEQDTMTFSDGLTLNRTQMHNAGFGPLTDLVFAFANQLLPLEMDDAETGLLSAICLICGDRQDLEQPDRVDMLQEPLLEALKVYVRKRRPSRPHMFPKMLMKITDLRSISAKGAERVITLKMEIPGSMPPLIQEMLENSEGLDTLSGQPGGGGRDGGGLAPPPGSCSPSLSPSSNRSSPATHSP
test.readout: Kd (µM)

> print(dat)
                                   compound  test.readout  unit.of.measure  assay.result
1  CC1(C)CC(C)(C)c2cc(C#Cc3ccc(CC(=O)O)c(F)c3)cc(C3CC3)c2O1            Kd               µM            10
2  CN(C1CC1)C1CCC(C)(C)c2cc(C#Cc3ccc(CC(=O)O)cc3)ccc21 (centres unmarked)            Kd               µM            10

###

Tested on: skin of hairless mice
Test: topical skin irritation test in hairless mice
Format: in vivo, female hairless mice (Crl:SKH1-hrBR)
Conditions: 100 nmole, once daily days 1 through 5, mean±SD
test.readout: Cutaneous Toxicity Score (Blackjack Score)

> print(dat)
                                    molecule  assay.result
 1  CC1(C)CCC(=O)c2ccc(C#Cc3ccc(CC(=O)O)cc3)cc21             0
 2  CC1(C)CC2(CC2)Oc2c(C3CC3)cc(C#Cc3ccc(CC(=O)O)c(F)c3)cc21             1
 3  CC1(C)CN(C2CC2)Cc2ccc(C#Cc3ccc(CC(=O)O)c(F)c3)cc21             0
 4  CN(C1CC1)C1CCC(C)(C)c2cc(C#Cc3ccc(CC(=O)O)cc3)ccc21 (centres unmarked)             5
 5  CC1(C)CCC(n2ccnc2)c2ccc(C#Cc3ccc(CC(=O)O)cc3)cc21 (centres unmarked)             1
 6  CC1(C)CC2(CC2)Oc2c(C3CC3)cc(C(=O)Oc3ccc(CC(=O)O)cc3)cc21             0
 7  CC1(C)CCC(=O)c2ccc(C#Cc3ccc(CC(=O)O)c(F)c3)cc21             1
 8  CN(C1CC1)C1CCC(C)(C)c2cc(C#Cc3ccc(CC(=O)O)c(F)c3)ccc21 (centres unmarked)             0
 9  CC1(C)CC(C)(C)c2cc(C#Cc3ccc(CC(=O)O)cc3)cc(C3CC3)c2O1             1
10  CC1(C)CC(C)(C)c2cc(C#Cc3ccc(CC(=O)O)c(F)c3)cc(C3CC3)c2O1             1
11  CC1(C)CC2(CC2)Oc2c(C3CC3)cc(C#Cc3ccc(CC(=O)O)cc3)cc21             1

###

Tested on: skin of hairless mice
Assay: topical skin irritation test in hairless mice
Format: in vivo, female hairless mice (Crl:SKH1-hrBR)
Settings: 300 nmole, once daily days 1 through 5, mean±SD
test.readout: Cutaneous Toxicity Score (Blackjack Score)

> print(dat)
                                   compound                 system  assay.result
1  CC1(C)CCC(n2ccnc2)c2ccc(C#Cc3ccc(CC(=O)O)cc3)cc21 (stereo not shown)  skin of hairless mice             1
2  CC1(C)CC2(CC2)Oc2c(C3CC3)cc(C(=O)Oc3ccc(CC(=O)O)cc3)cc21  skin of hairless mice             0
3  CC1(C)CN(C2CC2)Cc2ccc(C#Cc3ccc(CC(=O)O)c(F)c3)cc21  skin of hairless mice             0
4  CC1(C)CC2(CC2)Oc2c(C3CC3)cc(C#Cc3ccc(CC(=O)O)c(F)c3)cc21  skin of hairless mice             3
5  CN(C1CC1)C1CCC(C)(C)c2cc(C#Cc3ccc(CC(=O)O)c(F)c3)ccc21 (stereo not shown)  skin of hairless mice             1
6  CN(C1CC1)C1CCC(C)(C)c2cc(C#Cc3ccc(CC(=O)O)cc3)ccc21 (stereo not shown)  skin of hairless mice             8
7  CC1(C)CC2(CC2)Oc2c(C3CC3)cc(C#Cc3ccc(CC(=O)O)cc3)cc21  skin of hairless mice             3

###

Biological target: P450RAI-1 (Homo sapiens, UniProt O43174)
Sequence (O43174 whole entry): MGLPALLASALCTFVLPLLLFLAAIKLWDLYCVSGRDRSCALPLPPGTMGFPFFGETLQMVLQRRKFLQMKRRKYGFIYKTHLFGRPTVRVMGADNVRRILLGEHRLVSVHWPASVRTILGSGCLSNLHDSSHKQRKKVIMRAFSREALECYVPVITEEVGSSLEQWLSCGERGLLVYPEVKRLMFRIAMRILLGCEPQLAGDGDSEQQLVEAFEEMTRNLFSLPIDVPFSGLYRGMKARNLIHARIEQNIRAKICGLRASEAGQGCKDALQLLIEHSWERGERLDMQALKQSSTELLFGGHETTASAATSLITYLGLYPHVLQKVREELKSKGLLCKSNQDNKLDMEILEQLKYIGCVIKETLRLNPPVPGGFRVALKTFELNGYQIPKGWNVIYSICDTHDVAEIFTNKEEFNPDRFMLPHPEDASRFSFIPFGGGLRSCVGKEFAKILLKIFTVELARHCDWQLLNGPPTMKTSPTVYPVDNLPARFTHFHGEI
Test: cell-based
Details: intact HeLa, P450RAI-1 stably transfected, [3H]-RA, 3 hours at 37° C; read-out: P450RAI INHIBITION DATA INTACT HELA IC50
IC50 values, listed per item
test.readout: IC50 (µM)

> print(dat)
                                   compound  test.readout  assay.result
1  CC1(C)CC(C)(C)c2cc(C#Cc3ccc(CC(=O)O)c(F)c3)ccc2O1          IC50          0.13
2  CC(C)N(C)C1CCC(C)(C)c2cc(C#Cc3ccc(C(=O)O)cc3)ccc21 (stereo not drawn)          IC50            10
3   Cc1cc(C#Cc2ccc(CC(=O)O)cc2)ccc1Cn1ccnc1          IC50          0.18

###

System: RARα
Experiment: chimeric receptor transactivation assay, RARα
Format: cell-based
Settings: unit assumed
test.readout: (EFFICACY) RAR α (%)

> print(dat)
                                   molecule      test.readout  assay.result
1  CC1(C)CC2(CC2)Oc2ccc(C#Cc3ccc(C(=O)O)c(F)c3)cc21 [Compound 44]  (EFFICACY) RAR α           138
2  CC1(C)CCC(=O)c2ccc(C#Cc3ccc(C(=O)O)c(F)c3)cc21 [Compound 10]  (EFFICACY) RAR α           146
3  CN(C1CC1)C1CCC(C)(C)c2cc(C#Cc3ccc(C(=O)O)cc3)ccc21 (stereo not drawn) [Compound 3]  (EFFICACY) RAR α            28
4  COC1(c2ccc(C#Cc3ccc(C(=O)O)cc3)cc2)CC1 [Compound 69]  (EFFICACY) RAR α            10
5  Cc1cc(C#Cc2ccc(C(=O)O)cc2)ccc1C1(OC(C)C)CC1 [Compound 85]  (EFFICACY) RAR α            60
6  Cc1cc(C#Cc2ccc(C(=O)O)cc2)ccc1C1(OCC(C)(C)C)CC1 [Compound 89]  (EFFICACY) RAR α            20
7  CCc1cc(C#Cc2ccc(C(=O)O)cc2)ccc1C1(OCc2ccccc2)CC1 [Compound 93]  (EFFICACY) RAR α           114
8  CCCNC1(c2ccc(C#Cc3ccc(C(=O)O)cc3)cc2)CC1 [Compound 108]  (EFFICACY) RAR α            15
9  CC1(C)CC2(CC2)Oc2ccc(C#Cc3ccc(C(=O)O)cc3)cc21 [Compound 40]  (EFFICACY) RAR α           207
